assayed.target: T1, soluble KDR extracellular domain (ECD) (Calbiochem) (human, UniProt P35968 20-764)
T1 construct: extracellular domain; Bought protein; also called KDR-ECD; VEGF Receptor 2 D1-7, Cat. #676490
T1 sequence (P35968 20-764): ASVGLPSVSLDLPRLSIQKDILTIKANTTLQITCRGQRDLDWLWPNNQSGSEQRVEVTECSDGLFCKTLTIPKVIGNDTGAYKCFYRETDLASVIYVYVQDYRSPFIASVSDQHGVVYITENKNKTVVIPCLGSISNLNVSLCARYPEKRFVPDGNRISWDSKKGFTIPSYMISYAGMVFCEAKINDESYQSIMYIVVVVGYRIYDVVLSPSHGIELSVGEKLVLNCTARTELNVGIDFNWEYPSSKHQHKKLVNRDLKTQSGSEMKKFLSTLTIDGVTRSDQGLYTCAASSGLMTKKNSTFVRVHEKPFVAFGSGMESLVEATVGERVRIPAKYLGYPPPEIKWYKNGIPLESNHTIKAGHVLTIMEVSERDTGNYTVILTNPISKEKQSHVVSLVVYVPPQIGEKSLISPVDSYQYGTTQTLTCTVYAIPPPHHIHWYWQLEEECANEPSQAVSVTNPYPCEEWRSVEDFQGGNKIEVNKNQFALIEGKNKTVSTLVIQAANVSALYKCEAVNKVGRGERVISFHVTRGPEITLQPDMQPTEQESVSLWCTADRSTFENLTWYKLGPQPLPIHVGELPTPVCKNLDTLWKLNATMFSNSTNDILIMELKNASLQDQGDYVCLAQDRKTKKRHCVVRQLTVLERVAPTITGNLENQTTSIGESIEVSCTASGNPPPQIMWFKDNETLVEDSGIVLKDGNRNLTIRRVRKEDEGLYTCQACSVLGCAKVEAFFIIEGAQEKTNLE
test.summary: High Antigen ELISA, KDR coat 500 ng/mL, supernatant 1:225
The following binders are shown together with reported ELISA reading values.

{"binder": "22B8 (antibody, V domains shown, Fully human mAb from XenoMouse hybridoma, tested as hybridoma supernatant) VH: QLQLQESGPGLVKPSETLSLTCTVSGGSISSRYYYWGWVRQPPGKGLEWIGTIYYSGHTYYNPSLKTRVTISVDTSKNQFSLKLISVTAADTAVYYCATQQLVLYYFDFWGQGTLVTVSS VL: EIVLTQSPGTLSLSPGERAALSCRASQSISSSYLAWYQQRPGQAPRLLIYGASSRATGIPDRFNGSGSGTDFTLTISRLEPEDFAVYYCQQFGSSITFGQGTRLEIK", "ELISA reading": 6}
{"binder": "1G6 (antibody, V domains shown, Fully human mAb from XenoMouse hybridoma, tested as hybridoma supernatant) VH: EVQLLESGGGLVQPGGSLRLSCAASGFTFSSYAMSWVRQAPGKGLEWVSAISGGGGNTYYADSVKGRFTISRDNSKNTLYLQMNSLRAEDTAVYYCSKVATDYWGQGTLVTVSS VL: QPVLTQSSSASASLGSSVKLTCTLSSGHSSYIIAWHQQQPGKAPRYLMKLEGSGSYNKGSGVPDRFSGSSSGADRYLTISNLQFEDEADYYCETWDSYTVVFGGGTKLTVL", "ELISA reading": 4.49}
{"binder": "29A3 (antibody, V domains shown, Fully human mAb from XenoMouse hybridoma, tested as hybridoma supernatant) VH: QVQLQESGPGLVKPSETLSLTCTVSGGSISSYFWSWIRQPAGKGLEWIGRIYFSGRTNYNPSLKSRVTMSVETSKNQFSLKLNSVTAADTAVYYCARDGGWNYDVAFDYWGQGTLVTVSS VL: QAVLTQPSSLSASPGASASLTCTLRSGINVGTYRIYWYQQKPGSPPQYLLRYKSDSDQLQGSGVPSRFSGSKDASANAGILLISGLQSEDEADYYCMVWHSNTWVFGGGTKLTVL", "ELISA reading": 3.85}

Source: patent US20100260765A1
